assay.comment: Cytotoxicity against human PANC1 cells at 2 uM measured after 48 hrs by sulforhodamine B assay relative to control
Format: cell-based, PANC-1
study.conditions: read-out: INH
endpoint.name: cytotoxicity at 48 h, 2 µM (%)
One number for each entry, in %.

Query: I would be grateful if you could share the reported cytotoxicity at 48 h, 2 µM for COc1cccc2c1C(=O)c1c(O)c3c(c(O)c1C2=O)C[C@@](O)(C(=O)CO)C[C@@H]3O[C@H]1C[C@H](N)[C@H](O)[C@H](C)O1 .
Reply: 96.1

---

assay.comment: Cytotoxicity against human HeLa cells at 10 uM measured after 48 hrs by sulforhodamine B assay relative to control
Format: cell-based
study.conditions: read-out: INH
endpoint.name: cytotoxicity at 48 h, 10 µM (%)
Give bare numbers, in %.

> print(dat)
                                   molecule                endpoint.name  value.unit  readout.number
1  CCCCCCCc1cn(C(c2ccccc2)c2cc3cc(Br)ccc3nc2OC)nn1 (centres undefined)  cytotoxicity at 48 h, 10 µM           %             9.7
2  CCCCc1cn(C(c2ccccc2)c2cc3cc(Br)ccc3nc2OC)nn1 (centres undefined)  cytotoxicity at 48 h, 10 µM           %           -2.87
3  CCCc1cn(C(c2ccccc2)c2cc3cc(Br)ccc3nc2OC)nn1 (centres undefined)  cytotoxicity at 48 h, 10 µM           %           -2.25
4  COc1nc2ccc(Br)cc2cc1C(c1ccccc1)n1cc(C2CC2)nn1 (centres undefined)  cytotoxicity at 48 h, 10 µM           %           -5.84
5  COc1nc2ccc(Br)cc2cc1C(c1ccccc1)n1cc(-c2ccc(Br)cc2)nn1 (centres undefined)  cytotoxicity at 48 h, 10 µM           %            6.92
6  COc1nc2ccc(Br)cc2cc1C(c1ccccc1)n1cc(-c2cccc(F)c2)nn1 (centres undefined)  cytotoxicity at 48 h, 10 µM           %            9.04
7  COc1nc2ccc(Br)cc2cc1C(c1ccccc1)n1cc(-c2ccc(F)cc2)nn1 (centres undefined)  cytotoxicity at 48 h, 10 µM           %            4.27
8  COc1nc2ccc(Br)cc2cc1C(c1ccccc1)n1cc(CO)nn1 (centres undefined)  cytotoxicity at 48 h, 10 µM           %            0.25

For every item below, please supply its cytotoxicity at 48 h, 10 µM.
1. COc1nc2ccc(Br)cc2cc1C(c1ccccc1)n1cc(-c2ccccc2F)nn1 (centres undefined)
2. COc1nc2ccc(Br)cc2cc1C(c1ccccc1)n1cc(CCCO)nn1 (centres undefined)
3. CCCCCc1cn(C(c2ccccc2)c2cc3cc(Br)ccc3nc2OC)nn1 (centres undefined)
4. COc1nc2ccc(Br)cc2cc1C(c1ccccc1)n1cc(CCCCCO)nn1 (centres undefined)
5. CCCCCCCCc1cn(C(c2ccccc2)c2cc3cc(Br)ccc3nc2OC)nn1 (centres undefined)
6. COc1nc2ccc(Br)cc2cc1C(c1ccccc1)n1cc(-c2ccccc2C(F)(F)F)nn1 (centres undefined)
7. CCOC(=O)c1cn(C(c2ccccc2)c2cc3cc(Br)ccc3nc2OC)nn1 (centres undefined)
8. COc1nc2ccc(Br)cc2cc1C(c1ccccc1)n1cc(-c2ccccc2)nn1 (centres undefined)

Reply:
14.1
11.3
-9.81
1.08
0.1
-1.3
-3.67
13.9

For every item below, please supply its cytotoxicity at 48 h, 10 µM.
1. COc1nc2ccc(Br)cc2cc1C(c1ccccc1)n1cc(-c2ccc(OC(F)(F)F)cc2)nn1 (centres undefined)
2. CCCCCCc1cn(C(c2ccccc2)c2cc3cc(Br)ccc3nc2OC)nn1 (centres undefined)

Reply:
1: -2.24; 2: -0.97

Query: I would be grateful if you could share the reported cytotoxicity at 48 h, 10 µM for COc1nc2ccc(Br)cc2cc1C(c1ccccc1)n1cc(CCO)nn1 (centres undefined) .
Reply: 0.85
